# tested.system: T1, memapsin 2 (Homo sapiens, UniProt P56817)
# T1 construct: pET-11 vector-derived residues 1-15 of promemapsin 2-T1 (N, cleaved yes); made in house; host or cells: E. coli
# T1 sequence (P56817 41-454 limits assumed): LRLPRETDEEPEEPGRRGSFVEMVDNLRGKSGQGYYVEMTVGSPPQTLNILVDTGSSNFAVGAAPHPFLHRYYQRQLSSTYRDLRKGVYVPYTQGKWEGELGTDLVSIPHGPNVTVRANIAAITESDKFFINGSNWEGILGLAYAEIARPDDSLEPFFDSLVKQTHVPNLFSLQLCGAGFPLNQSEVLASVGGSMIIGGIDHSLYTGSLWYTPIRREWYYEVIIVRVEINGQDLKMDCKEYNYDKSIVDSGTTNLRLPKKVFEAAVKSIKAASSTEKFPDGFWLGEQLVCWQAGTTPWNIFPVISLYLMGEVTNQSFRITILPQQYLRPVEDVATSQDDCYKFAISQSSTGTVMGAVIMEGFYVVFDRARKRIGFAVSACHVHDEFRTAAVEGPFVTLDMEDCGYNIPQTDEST
# assay.procedure: Inhibition of memapsin 2 proteolytic activity, fluorogenic substrate FS-2
# Format: biochemical
# measurement.parameters: memapsin 2; independent of substrate, converted from Ki apparent; read-out: Ki
Each item that follows carries a reported Ki.
API: value field is a number in nM; no unit string.

Here's what some known entries look like.
C=CC[C@H](C[C@H](O)[C@H](CC(C)C)NC(=O)[C@H](CC(N)=O)NC(=O)[C@@H](NC(=O)OC(C)(C)C)C(C)C)C(=O)N[C@H](C(=O)NCc1ccccc1)C(C)C [MMI-021] : 70.1
CSCC[C@H](C[C@H](O)[C@H](CC(C)C)NC(=O)[C@H](CCSC)NC(=O)[C@H](CC(C)C)NC(=O)OC(C)(C)C)C(=O)N[C@H](C(=O)NCc1ccccc1)C(C)C [MMI-164] : 7.98
CSCC[C@H](NC(=O)[C@@H](NC(=O)OC(C)(C)C)C(C)C)C(=O)N[C@@H](CC(C)C)[C@@H](O)C[C@@H](C)C(=O)N[C@@H]1CCCC[C@@H]1O [MMI-057] : 45800
C=CCNC(=O)C[C@H](NC(=O)[C@@H](NC(=O)OCC=C)C(C)C)C(=O)N[C@@H](CC(C)C)[C@@H](O)C[C@@H](C)C(=O)N[C@H](C(=O)NCc1ccccc1)C(C)C [MMI-148] : 16.2
COc1ccc(C(=O)N[C@@H](CCSC)C(=O)N[C@@H](CC(C)C)[C@@H](O)C[C@@H](C)C(=O)N[C@@H](CC(C)C)C(=O)NC(C)C)cc1 [MMI-208] : 1220

Q: Looking for the measured Ki of CSCC[C@H](NC(=O)[C@@H](NC(=O)OC(C)(C)C)C(C)C)C(=O)N[C@@H](CC(C)C)[C@@H](O)C[C@@H](C)C(=O)N[C@@H](CC(C)C)C(=O)N1CCOCC1 [MMI-183] , can you help?
Result: 4210

Q: Check CSCC[C@H](NC(=O)[C@@H](NC(=O)OC(C)(C)C)C(C)C)C(=O)N[C@@H](CC(C)C)[C@@H](O)C[C@@H](CO)C(=O)N[C@H](C(=O)NCc1ccccc1)C(C)C [MMI-132] too.
Result: 67.1

Q: Check CSCC[C@H](NC(=O)OCn1nc(C)cc1C)C(=O)N[C@@H](CC(C)C)[C@@H](O)C[C@@H](C)C(=O)N[C@@H](CC(C)C)C(=O)NCC(C)C [MMI-166] too.
Result: 67.4

Q: Check CC(C)C[C@H](NC(=O)[C@@H](NC(=O)[C@@H](NC(=O)OC(C)(C)C)C(C)C)[C@@H]1CCOC1)[C@@H](O)C[C@@H](C)C(=O)N[C@H](C(=O)NCc1ccccc1)C(C)C [MMI-020] too.
Result: 1000

Q: Check CSCC[C@H](NC(=O)[C@@H](NC(=O)OC(C)(C)C)C(C)C)C(=O)N[C@@H](CC(C)C)[C@@H](O)C[C@@H](C)C(=O)N[C@H](C(=O)NCc1ccccc1)C1CCCO1 (stereo partly shown) [MMI-034] too.
Result: 139
